- Test system: UACC-257 melanoma
- assay.notes: NCI tumour cell line growth inhibition, 48 h
*1 amine or outer side, *2 acyl side, *3 side chain or, on linkers, in order; H or OH if unused. Where a SMILES comes first, the peptide text is derived from it. Bridges are numbered along the chain shown (N, C = ends). Roman numbers before positions name the chains, in order. [ ]: non-standard residue; d: D form. Actinocin(1to9) = Cc1c2oc3c(C)ccc(C(=O)[*:2])c3nc-2c(C(=O)[*:1])c(N)c1=O; NMeV = CN[CH](C(=O)O)C(C)C; Sar = CNCC(=O)O
Items are presented alongside their recorded TGI.
Provide the reading as a plain figure in µM.

COc1ccc(CC2NC(=O)C(NC(=O)c3c4nc5c(C(=O)NC6C(=O)NC(Cc7ccc(OC)cc7)C(=O)N7CCCC7C(=O)N(C)CC(=O)N(C)C(C(C)C)C(=O)OC6C)ccc(C)c5oc-4c(C)c(=O)c3N)C(C)OC(=O)C(C(C)C)N(C)C(=O)CN(C)C(=O)C3CCCN3C2=O)cc1 (stereo not drawn) (I: TY(Me)P[Sar][NMeV] / II: TY(Me)P[Sar][NMeV]; ester I:1-I:C, II:1-II:C; linker I:N-II:N via Actinocin(1to9); configuration not given here): 0.0349

--- query ---
Given Cc1cccc2c(N)c3cccc(C(=O)NCCNCCN)c3nc12 , state its recorded TGI.
99.3
